# ASSAY_TEXT: binders of probe aFGF2 on microarray, primary screen, stem cell growth factor project, biochemical, small-molecule microarray, fluorescence 635/667 (AID 1067);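 note: measures binding of biotinylated aFGF2 protein to printed compounds on slides; z-score merges feature fluorescence and signal-to-noise across triplicate slides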
# SETUP_CONDITIONS: higher = more signal

{"MOLECULE": "Cc1cccc([C@H]2C[C@H]3C(Br)=C[C@@H]2C(=O)[C@]32CO2)c1", "composite z-score": -0.182}
{"MOLECULE": "COC(=O)[C@@]1(Cc2ccc(F)cc2)[C@H]2c3cc(C(=O)N(C)C)n(Cc4ccc(O)c(OC)c4)c3C[C@H]2CN1C(=O)c1ccccc1", "composite z-score": 0.0398}
{"MOLECULE": "C=C(COC)/C(=C/C[C@@H](OC(C)=O)c1ccc(CO)o1)c1cc(C(=O)OC)ccc1OC", "composite z-score": -0.111}
{"MOLECULE": "COc1ccc(C(O)C2C=CC3C(=O)N(c4ccccc4)C(=O)C3N2Nc2ccc(C(C)C)cc2)c2ccccc12 (stereo not given)", "composite z-score": 0.0442}
{"MOLECULE": "COC(=O)[C@@]1(Cc2ccccc2)[C@H]2c3cc(C(=O)N(C)C)n(CCn4cc([N+](=O)[O-])nc4C)c3C[C@H]2CN1C(=O)c1ccccc1", "composite z-score": -0.045}
{"MOLECULE": "C=C(C(=O)CC[C@@H](OC(=O)c1ccccc1-c1ccccc1C(=O)O)c1ccccc1OCCO)C(C)C", "composite z-score": -0.113}
{"MOLECULE": "COc1cc(NN2C(C(O)c3ccc(I)cc3)C=CC3C(=O)N(c4ccccc4)C(=O)C32)cc(OC)c1OC (stereo not given)", "composite z-score": 0.145}
{"MOLECULE": "CC(=O)NCCCC[C@@H]1NC(=O)[C@H]2C[C@@H](C(=O)NCCCCCNC(=O)CS)[C@@H](c3cccc(OCCO)c3)N2C1=O", "composite z-score": -0.133}
{"MOLECULE": "O=C1OCC=C[C@H]2OC34C=CCN(c5ccc6ccccc6c5)C(=O)[C@H]3N(CCCCCO)C(=O)[C@@H]4[C@@H]12 (stereo not given in full)", "composite z-score": -0.0407}
{"MOLECULE": "C=C[C@@H](OC)[C@H](OC(=O)Nc1ccc(SC)cc1)c1ccc(OCCO)cc1", "composite z-score": 0.0166}
{"MOLECULE": "O=C1C2C=CC(C(O)c3ccc4c(c3)OCO4)N(Nc3ccccc3)C2C(=O)N1c1ccccc1 (stereo not given)", "composite z-score": 0.0917}
{"MOLECULE": "COc1ccc([Si](C)(C)[C@H]2[C@H](CCO)O[C@@]3(C(=O)N(Cc4ccccc4)c4ccc(N5C(=O)c6ccccc6Oc6ccccc65)cc43)[C@@H]2C)cc1", "composite z-score": -0.0591}
{"MOLECULE": "COc1cc2c(cc1O)C(c1cccs1)N(Cc1sc3ccccc3c1Cl)CC2 (stereo not given)", "composite z-score": 0.115}
{"MOLECULE": "[N-]=[N+]=Nc1ccccc1C[C@]1(C(=O)O)N=C(c2ccc(OCCCO)cc2)O[C@H]1c1ccccc1N=[N+]=[N-]", "composite z-score": 0.0857}
{"MOLECULE": "COCCOC(=O)N1C(=O)[C@@]2(c3cc(C#CCCO)ccc31)[C@H](c1ccccc1OCCO)N1[C@H](c3ccccc3)[C@H](c3ccccc3)OC(=O)[C@H]1[C@@H]2C(=O)N1CCCCCCC1", "composite z-score": 0.452}
